Quantity measured: glass transition temperature (°C)

Prompt: Which glass transition temperature is listed for *C#Cc1cc(C(C)(C)C)cc2c3cc(C(C)(C)C)cc(*)c3n(CCCCCCCCCCCCCCCC)c12 (repeat unit) ?
Response: 80.00

1 = *c1ccc(-c2ccc(-c3cc(-c4ccc(Oc5ccc(-c6ccccc6)cc5)cc4)c4cc(-c5ccc6nc(*)cc(-c7ccc(Oc8ccc(-c9ccccc9)cc8)cc7)c6c5)ccc4n3)cc2)cc1 (repeat unit)
2 = *c1sc(*)c(CCCCCCN(CC)c2ccc(/N=N/c3ccc([N+](=O)[O-])cc3)cc2)c1CCCCCC (repeat unit)
Prompt: Between item 1 and item 2 , which reported glass transition temperature is smaller? Respond with the label that goes with your answer.
Response: 2

I = *C(=O)c1ccc2c(c1)C(=O)N(c1ccc(Cc3ccc(C(=O)c4cccc(N5C(=O)c6ccc(*)cc6C5=O)c4)cc3)cc1)C2=O (repeat unit)
II = *Oc1ccc(/N=C/C=N/c2ccc(OC(=O)Nc3cc(NC(*)=O)ccc3C)cc2)cc1 (repeat unit)
III = *c1ccc(Oc2ccc(C(=O)c3cccc(C(=O)c4ccc(Oc5ccc(N6C(=O)c7ccc(Oc8ccc(Sc9ccc(Oc%10ccc%11c(c%10)C(=O)N(*)C%11=O)cc9)cc8)cc7C6=O)cc5)cc4)c3)cc2)cc1 (repeat unit)
IV = *CC(COc1ccc(O*)cc1)OC(C)=O (repeat unit)
Prompt: Let's sort these by glass transition temperature, smallest first. Go ahead? Ranked list of labels, please, in the requested order.
Response: IV, II, III, I
(IV: 49.00 °C, II: 76.00 °C, III: 192.00 °C, I: 290.00 °C)
